Where do the numbers come from? From patent US20210380703A1.

STUDY SYSTEM: Mouse ACVR2A (mouse, UniProt P27038 20-135, limits assumed); note: test concentration or dose not given here
Sequence (P27038 20-135 limits assumed): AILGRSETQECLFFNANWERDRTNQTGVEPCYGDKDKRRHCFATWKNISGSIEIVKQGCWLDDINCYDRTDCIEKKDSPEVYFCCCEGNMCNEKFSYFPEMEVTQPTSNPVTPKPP
EXPERIMENT SUMMARY: ELISA
RECORDED METRIC: optical density

input: Requested field: optical density. Item: 373_E07 (antibody, V domains shown) VH: EVQLLESGGGLVQPGGSLRLSCAASGFTFSSYGMNWVRQAPGKGLEWVANINYNGGYTSYADSVKGRFTISRDNSKNTLYLQMNSLRAEDTAVYYCARSANWHDTALDYWGQGTLVTVSS VL: DIQMTQSPSSLSASVGDRVTITCRASQSILTYVNWYQQKPGKAPKLLIYAATSLASGVPSRFSGSGSGTDFTLTISSLQPEDFATYYCQQSYETPLTFGGGTKVEIK
output: 3.54 OD

input: Requested field: optical density. Item: 370_C03 (antibody, V domains shown) VH: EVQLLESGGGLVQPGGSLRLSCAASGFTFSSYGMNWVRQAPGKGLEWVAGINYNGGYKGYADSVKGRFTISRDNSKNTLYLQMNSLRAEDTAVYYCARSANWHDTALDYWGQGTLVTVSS VL: DIQMTQSPSSLSASVGDRVTITCRASQSILTYLNWYQQKPGKAPKLLIYYVTNRQSGVPSRFSGSGSGTDFTLTISSLQPEDFATYYCQQSYSSPLTFGGGTKVEIK
output: 3.77 OD

input: Requested field: optical density. Item: 367_E11 (antibody, V domains shown) VH: EVQLLESGGGLVQPGGSLRLSCAASGFTFDSYGMNWVRQAPGKGLEWVSSINYNSGYKGYADSVKGRFTISRDNSKNTLYLQMNSLRAEDTAVYYCARSANWHDTHLDYWGQGTLVTVSS VL: DIQMTQSPSSLSASVGDRVTITCRASQSIVSYVNWYQQKPGKAPKLVIYAATSRHSGVPSRFSGSGSGTDFTLTISSLQPEDFATYYCQQSYDTPLTFGGGTKVEIK
output: 2.91 OD

input: Requested field: optical density. Item: 372_D02 (antibody, V domains shown) VH: EVQLLESGGGLVQPGGSLRLSCAASGFTFSSYGMHWVRQAPGKGLEWVAGINYNGGYTGYADSVKGRFTISRDNSKNTLYLQMNSLRAEDTAVYYCARSANWHDTALDYWGQGTLVTVSS VL: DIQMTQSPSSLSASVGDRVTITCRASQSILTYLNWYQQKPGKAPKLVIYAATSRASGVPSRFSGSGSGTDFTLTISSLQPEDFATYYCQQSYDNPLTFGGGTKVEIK
output: 2.91 OD

input: Requested field: optical density. Item: 371_H09 (antibody, V domains shown) VH: EVQLLESGGGLVQPGGSLRLSCAASGFTFDSYSMNWVRQAPGKGLEWVSNINYNGGYTSYADSVKGRFTISRDNSKNTLYLQMNSLRAEDTAVYYCARSANWHDTALDYWGQGTLVTVSS VL: DIQMTQSPSSLSASVGDRVTITCRASQSILTYVNWYQQKPGKAPKLVIYAATSLASGVPSRFSGSGSGTDFTLTISSLQPEDFATYYCQQSYDSPLTFGGGTKVEIK
output: 3.23 OD
